Reference source for all entries: patent US20100292185A1

IC50 overview
Biological target: OXA-23 β-lactamase (Acinetobacter baumannii)
Construct: crude β-lactamase extracts were prepared from 20 ml overnight cultures; endogenous in cells; host or cells: Acinetobacter baumannii cells containing OXA-23 (crude freeze-thaw extract)
Sequence (Q9L4P2 18-273): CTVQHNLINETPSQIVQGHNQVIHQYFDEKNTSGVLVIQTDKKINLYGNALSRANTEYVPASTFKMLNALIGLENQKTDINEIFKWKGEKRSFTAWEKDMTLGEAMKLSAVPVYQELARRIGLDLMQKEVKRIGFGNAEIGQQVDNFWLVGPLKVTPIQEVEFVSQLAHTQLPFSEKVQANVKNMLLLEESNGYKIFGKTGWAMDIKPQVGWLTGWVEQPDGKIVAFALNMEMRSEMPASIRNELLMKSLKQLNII
Experiment: β-lactamase enzyme inhibition assay (nitrocefin substrate), OXA-23 crude extract
Assay type: biochemical
Conditions: nitrocefin 100 μM, 37° C., PBS pH 7.0; read-out: OXA-23 IC50
API: value field is a number in µM; no unit string.

>>> result("NCc1ccc(CC(=O)N[C@@H](Cc2cccc(C(=O)O)c2O)B(O)O)cc1")
0.252

# query: IC50 of entry `O=C(Cc1ccc(CNCCO)cc1)N[C@@H](Cc1cccc(C(=O)O)c1O)B(O)O` 0.256

Bench note: what IC50 did Br.CC(C)(O/N=C(\C(=O)N[C@@H](Cc1cccc(C(=O)O)c1O)B(O)O)c1csc(N)n1)C(=O)O [Example 48, hydrobromide] show? 0.67

If you can, please state the reported IC50 value of `O=C(N[C@@H](Cc1cccc(C(=O)O)c1O)B(O)O)c1cccc(CN2CCNCC2)c1` . 0.022

Reported IC50, molecule `Cc1cc(NCc2cccc(C(=O)N[C@@H](Cc3cccc(C(=O)O)c3O)B(O)O)c2)no1` : ____ 0.009

###

Biological target: OXA-23 β-lactamase (Acinetobacter baumannii)
Construct: crude β-lactamase extracts were prepared from 20 ml overnight cultures; endogenous in cells; host or cells: Acinetobacter baumannii cells containing OXA-23 (crude freeze-thaw extract)
Assay: β-lactamase enzyme inhibition assay (nitrocefin substrate), OXA-23 crude extract
Format: biochemical
Measured IC50 by item

>>> result("CC[N+](CC)(CC)Cc1ccc(C(=O)N[C@@H](Cc2cccc(C(=O)O)c2O)B(O)O)cc1 [Example 13]")
"> 1000 nM"

Which IC50 reading was recorded for the molecule O=C(N[C@@H](Cc1cccc(C(=O)O)c1O)B(O)O)c1ccc(C[n+]2ccccc2)cc1 [Example 14] ? > 1000 nM

###

Molecular target: OXA-23 β-lactamase (Acinetobacter baumannii)
Construct: crude β-lactamase extracts were prepared from 20 ml overnight cultures; endogenous in cells; host or cells: Acinetobacter baumannii cells containing OXA-23 (crude freeze-thaw extract)
Experiment: β-lactamase enzyme inhibition assay (nitrocefin substrate), OXA-23 crude extract
Format: biochemical
Conditions: nitrocefin 100 μM, 37° C., PBS pH 7.0; read-out: OXA-23 IC50
OBSERVED PROPERTY: pIC50
Reminder that pIC50 means the negative base-10 logarithm of the concentration expressed in mol/L.

Find pIC50 (OXA-23 β-lactamase (Acinetobacter baumannii)) for the entry `NCc1cccc(CC(=O)N[C@@H](Cc2cccc(C(=O)O)c2O)B(O)O)c1` 6.23

What reported pIC50 corresponds to `CC(=O)NCc1ccc(CC(=O)N[C@@H](Cc2cccc(C(=O)O)c2O)B(O)O)cc1` on OXA-23 β-lactamase (Acinetobacter baumannii)? 6.94

Tell me reported pIC50 for `Cl.Nc1cc(C(=O)N[C@@H](Cc2cccc(C(=O)O)c2O)B(O)O)ccn1` , tested with OXA-23 β-lactamase (Acinetobacter baumannii). 6.84

###

Target: VIM-2 metallo β-lactamase (Pseudomonas aeruginosa)
Construct: made in house
Assay: β-lactamase enzyme inhibition assay (nitrocefin substrate), VIM-2
Format: biochemical
Settings: nitrocefin 100 μM, 37° C., PBS pH 7.0; read-out: VIM-2 IC50
OBSERVED PROPERTY: pIC50
Answer as the number alone; pIC50 is minus log10 of concentration in mol/L.

These solved cases illustrate the format of a correct answer.
>>> result("Cl.NCc1ccc(C(=O)N[C@@H](Cc2cccc(C(=O)O)c2O)B(O)O)cc1 [Example 2, hydrochloride]")
7.66
>>> result("O=C(N[C@@H](Cc1cccc(C(=O)O)c1O)B(O)O)c1cccc(CNc2nccs2)c1")
6.53
>>> result("Cl.Nc1cc(C(=O)N[C@@H](Cc2cccc(C(=O)O)c2O)B(O)O)ccn1")
6.15

// pIC50 lookup, key: `O=C(N[C@@H](Cc1cccc(C(=O)O)c1O)B(O)O)c1ccc(CN2CCOCC2)cc1` 6.07

Quick check: pIC50 of `CNCc1cccc(C(=O)N[C@@H](Cc2cccc(C(=O)O)c2O)B(O)O)c1` ? 6.85

What does the record list as pIC50 for `O=C(N[C@@H](Cc1cccc(C(=O)O)c1O)B(O)O)c1cccc(CN2CCNCC2)c1` ? 6.75

Reported pIC50, molecule `NCCNCc1cccc(C(=O)N[C@@H](Cc2cccc(C(=O)O)c2O)B(O)O)c1` : ____ 7.00
